// reported CD4+ Percent Bound of Viable per item
Target: T1, human CD4 on cells (SKW3 cells; human PBMCs) (human, UniProt P01730 26-458)
T1 construct: whole, on cells; SKW3 CD4 knockout cells served as the negative cell line for the WT vs KO ratios; also called hCD4; SKW3 WT
Assay: FACS confirmation, supernatant on human PBMCs, anti-mFc 647, percent of viable cells

- 75110_02I18A (antibody, V domains shown, Tested as non-clonal hybridoma supernatant (AlivaMab Mouse Kappa), detected with anti-mouse Fc and anti-human kappa) VH: EVQVVESGGGLVQPGGSLRLSCAASGFTFSSYDMHWVRQATGKGLEWVSTIGTAGDTYYPGSVKGRFTISRENAKNSLYLQMNSLRAGDTAVYYCARGGYYYYGMDVWGQGTTVTVSS VL: EIVLTQSPGTLSLSPGERATLSCRASQSVSSSYLAWYQQKPGQSPRLLIHGASSRATGIPDRVSGSGSGTDFTLTISRLEPEDFAVYYCQQYGSSPFTFGPGTKVDIK: 29%
- 75110_05E05A (antibody, V domains shown, Tested as non-clonal hybridoma supernatant (AlivaMab Mouse Kappa), detected with anti-mouse Fc and anti-human kappa) VH: QVQLQESGPGLVKPSETLSLTCTVSGGSIGSYYWSWIRQPAGKGLEWIGRIYTSGSTNYNPSLKSRVTMSFDTSKNQFSLKLNSVTAADTAVYYCATDGGVGDSLDYWGQGTLVTVSS VL: DIVMTQTPLSLPVTPGEPASISCRSSQSLLDSDDGNTYLDWYLQKPGQSPQLLIYTLSYRASGVPDRFSGSGSGTDFTLKISRVEAEDVGVYYCMQHIEFPFTFGPGTKVDIK: 28%
- 75110_08A13A (antibody, V domains shown, Tested as non-clonal hybridoma supernatant (AlivaMab Mouse Kappa), detected with anti-mouse Fc and anti-human kappa) VH: EVQLVESGGGLVQPGGSLRLSCAASGFIFSSYWMSWVRQAPGKGLEWVANIKQDGSEKYYMDSVKGRFTISRDNAKNSLYLQMNSLRAEDTAVYYCARDNSYYYYGMDVWGQGTTVTVSS VL: AIQMTQSPSSLSASVGDRVTITCRASQGIRDDLGWYQQKPGKAPKLLIFAASSLQSGVPSSFSGSGSGTDFTLTISSLQPEDFATYYCLHHYNYPYTFGQGTKLEIK: 29%
- 75110_07J24A (antibody, V domains shown, Tested as non-clonal hybridoma supernatant (AlivaMab Mouse Kappa), detected with anti-mouse Fc and anti-human kappa) VH: QAQLQESGPGLVKPSETLSLTCTVSGGSISSYYYNWIRQPAGKGLEWIGRIYTSGRTDYNPSLKSRVTMSADTSKNQFSLKLSSVTAADTAVYYCARDEGPTDAFDIWGQGTMVTVSS VL: DIVMTQTPLSLPVTPGEPASISCRSSQSLLDSDDGNTYLDWYLQKPGQSPHLLIYTLSYRASGVPDRFSGSGSGSDFTLKISRVEAEDVGVYYCMQRIEFPFTFGPGTKVDIK: 33%

Request: Can you share its CD4+ Percent Bound of Viable? I mean this binder: 75110_05A11A (antibody, V domains shown, Tested as non-clonal hybridoma supernatant (AlivaMab Mouse Kappa), detected with anti-mouse Fc and anti-human kappa) VH: EVQLVESGGGLVKPGGSLTLSCAASGFTFSNTWMSWVRQAPGKGLEWVGRIKSKIDGGTTDYAAPVKGRFTISRDDSKNTLYLQMNSLKTEDTAVYYCTTSGTYSSGWGLFDYWGQGTLVTVSS VL: DIQMTQSPSSLSASVGDRVTITCQASQDISNYLNWYQQKPGKAPKLLIYDTSNLEAGVPSRFSGSGSGTHFTLTISSLQPEDIATYYCQQYDNLPFTFGGGTRVEIK
Result: 26%
